The reported numbers originate from the RNAGym collection of RNA variant scans (doi:10.7554/elife.90254).

B1: LINE1-full (parent)
chain: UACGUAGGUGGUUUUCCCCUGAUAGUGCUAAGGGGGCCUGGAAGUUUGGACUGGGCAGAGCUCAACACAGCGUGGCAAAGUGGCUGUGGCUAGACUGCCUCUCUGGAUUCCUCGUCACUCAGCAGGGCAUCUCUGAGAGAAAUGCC

# Variants of: B1
# Method Summary: self-cleavage, relative activity (ratio to wild type); higher = more cleavage; in vitro, sequencing; the parent is a self-cleaving ribozyme
Reported Endpoint: self-cleavage

[in] Look at this variant and give its reported self-cleavage. G44A A79U
[out] 1.89

[in] Look at this variant and give its reported self-cleavage. C19U A129U
[out] 1.84

[in] Look at this variant and give its reported self-cleavage. C110A U115C
[out] 1.47

[in] Look at this variant and give its reported self-cleavage. A50G A59U
[out] 0.84

[in] Look at this variant and give its reported self-cleavage. G83A A124U
[out] 0.79

[in] Look at this variant and give its reported self-cleavage. A117G U130C
[out] 1.42

[in] Look at this variant and give its reported self-cleavage. A78G A124G
[out] 0.99

[in] Look at this variant and give its reported self-cleavage. G83A A140G
[out] 0.49

[in] Look at this variant and give its reported self-cleavage. A22G U104C
[out] 1.26

[in] Look at this variant and give its reported self-cleavage. U26C A69U
[out] 0.11

[in] Look at this variant and give its reported self-cleavage. A77U U96G
[out] 0.27

[in] Look at this variant and give its reported self-cleavage. A64G C66U
[out] 0.08

[in] Look at this variant and give its reported self-cleavage. G49A A64U
[out] 0.33

[in] Look at this variant and give its reported self-cleavage. A43U U47C
[out] 2.03

[in] Look at this variant and give its reported self-cleavage. A2G G144A
[out] 0.86

[in] Look at this variant and give its reported self-cleavage. G70A
[out] 0.1

[in] Look at this variant and give its reported self-cleavage. A22G A42U
[out] 1.31

[in] Look at this variant and give its reported self-cleavage. U1C A69U
[out] 0.04

[in] Look at this variant and give its reported self-cleavage. G54A C116A
[out] 0.47

[in] Look at this variant and give its reported self-cleavage. U81A U134C
[out] 2.26

[in] Look at this variant and give its reported self-cleavage. A6G G21U
[out] 0.53

[in] Look at this variant and give its reported self-cleavage. U15C A107U
[out] 1.2

[in] Look at this variant and give its reported self-cleavage. U46C U115C
[out] 1.66

[in] Look at this variant and give its reported self-cleavage. G35U U134C
[out] 1.12

[in] Look at this variant and give its reported self-cleavage. G33A A141G
[out] 1.01

[in] Look at this variant and give its reported self-cleavage. A30U U52C
[out] 1.09

[in] Look at this variant and give its reported self-cleavage. U115A A117G
[out] 1.61

[in] Look at this variant and give its reported self-cleavage. U47C G53U
[out] 1.3

[in] Look at this variant and give its reported self-cleavage. U15C C116U
[out] 0.62

[in] Look at this variant and give its reported self-cleavage. U85A C120U
[out] 0.2

[in] Look at this variant and give its reported self-cleavage. A94G A138G
[out] 0.19

[in] Look at this variant and give its reported self-cleavage. U29A A92G
[out] 0

[in] Look at this variant and give its reported self-cleavage. A31G A117C
[out] 2.3

[in] Look at this variant and give its reported self-cleavage. G41A U62C
[out] 0.08

[in] Look at this variant and give its reported self-cleavage. A31G C118U
[out] 1.73

[in] Look at this variant and give its reported self-cleavage. U73C U81G
[out] 2.04

[in] Look at this variant and give its reported self-cleavage. U1A G70C
[out] 0.43

[in] Look at this variant and give its reported self-cleavage. A2G U102G
[out] 0

[in] Look at this variant and give its reported self-cleavage. A42U U46C
[out] 1.37

[in] Look at this variant and give its reported self-cleavage. G75A A124G
[out] 0.72

[in] Look at this variant and give its reported self-cleavage. C61U G106A
[out] 0.02

[in] Look at this variant and give its reported self-cleavage. G54U U115A
[out] 0.74

[in] Look at this variant and give its reported self-cleavage. U52A A138G
[out] 1.57

[in] Look at this variant and give its reported self-cleavage. U46A U91A
[out] 0.62

[in] Look at this variant and give its reported self-cleavage. G21A U109A
[out] 0.64

[in] Look at this variant and give its reported self-cleavage. G8U A136G
[out] 0.46

[in] Look at this variant and give its reported self-cleavage. U73C U119A
[out] 1.64

[in] Look at this variant and give its reported self-cleavage. U85C U109A
[out] 0.12

[in] Look at this variant and give its reported self-cleavage. G44A A79G
[out] 0.99

[in] Look at this variant and give its reported self-cleavage. U102C U112G
[out] 1.15

[in] Look at this variant and give its reported self-cleavage. A50G A138U
[out] 0.95

[in] Look at this variant and give its reported self-cleavage. A50U A94G
[out] 0.29

[in] Look at this variant and give its reported self-cleavage. G10A U115A
[out] 0.86

[in] Look at this variant and give its reported self-cleavage. C17U A69G
[out] 0.4

[in] Look at this variant and give its reported self-cleavage. C133U A136G
[out] 0.49

[in] Look at this variant and give its reported self-cleavage. U9A A124G
[out] 1.02

[in] Look at this variant and give its reported self-cleavage. C123U A124G
[out] 1.25

[in] Look at this variant and give its reported self-cleavage. C71A A129G
[out] 0.23
